- Tested target: T1, CEA-derived … (SEQ ID NO: 71)-HLA-A*0201 complex (biotin on the C-terminal biotinylation tag (enzymatic, BirA))
- T1 construct: also called soluble biotinylated HLA-A2-peptide complex; not shown: C-terminal biotinylation tag that replaces the transmembrane and cytoplasmic domains
- Assay method text: Biacore SPR, pMHC immobilised
Can you tell me koff for the items I'm about to list?

Answered cases to consult:
SEQ ID NO 68 (receptor) MGHLPKPTLWAEPGSVITMDQPVTLRCQGGQETQEYRLYREKKTAPWITRIPQELVKKGQFPIPSITWEHAGRYRCYYGSDTSQWSASSDPLELVVTGVYIKPTLSAQPSPVVNSGGNVTLQCDSPFIADGFILCKEGEDEHPQCLNSQPHARGSSRAIFSVGPVSPSRRWWYRCYAYMSWSPYEWSLPSDLLELDVDG    ≤ 2 s⁻¹
SEQ ID NO 53 (receptor) MAGHLPKPTLWAEPGSVITMDQPVTLRCQGGQETQEYRLYREKKTAPWITRIPQELVKKGQFPIPSITWEHAGRYRCYYGSDTSQWSASSDPLELVVTGVYIKPTLSAQPSPVVNSGGNVTLQCDSQVAFDGFILCKEGEDEHPQCLNSQPHARGSSRAIFSVGPVSPSRRWWYRCYAYPIWTPYEWTRGSDLLELDVDG    ≤ 2 s⁻¹

Now for the binder whose koff we want.
Entry under review: SEQ ID NO 17 (receptor) MAQHLPKPTLWAEPGSVITMDQPVTLRCQGGQETQEYRLYREKKTAPWITRIPQELVKKGQFPIPSITWEHAGRYRCYYGSDTSQWSASSDPLELVVTGVYIKPTLSAQPSPVVNSGGNVTLQCDSQVAYDGFILCKEGEDEHPQCLNSQPHARGSSRAIFSVGPVSPSRRWWYRCYAYDSNSPYEWSLPSDLLELDVDG . Reported koff?
≤ 2 s⁻¹
